- Procedure details: Partition equilibrium in reactor pressurized with CO2, in presence and absence of alkalinity (NaHCO3, Na2CO3), back titration
- Condition details: Na2CO3 + NaHCO3; 25° C. and 0.1 MPa
Value type: Migration (% mol)

Recorded results for 2 compounds are shown here.
* O=C(O)CCCCC1CCCCC1 | 71.1
* O=C(O)c1ccccc1 | 49.3

A = O=C(O)CCCCc1ccccc1
B = CCCCC(=O)O
For the pair A and B , which member has the lower Migration number? // caller expects the label of the chosen entry
B
(B: 61.3 % mol, A: 100.0 % mol)

----------
Parameter: Migration. Scope: all listed entries.
- Procedure details: Partition equilibrium under the influence of salinity (NaCl), glass reactor, neutralization titration
- Assay type: physicochemical
- Condition details: Salinity 0 (%, m · m^−1) NaCl

* O=C(O)c1ccccc1 | 82.9 %, mol
* CCCCC(=O)O | 76.7 %, mol
* O=C(O)CCCCc1ccccc1 | 24.4 %, mol

Please give measured Migration of the following entry: O=C(O)CCCCC1CCCCC1
4.9 %, mol

Specify measured Migration for O=C(O)C(C1CCCCC1)C1CCCCC1 .
22.0 %, mol

----------
- Procedure details: Partition equilibrium in the presence of demulsifiers (Dissolvan 961, Dissolvan 974)
- Condition details: Absence of ions (no demulsifier); salinity 3.5%
A collection of molecules and their measured Migration

• CCCCC(=O)O = 77.0 %, mol
• O=C(O)CCCCC1CCCCC1 = 4.9 %, mol
• O=C(O)CCCCc1ccccc1 = 10.4 %, mol

Tell me its Migration given O=C(O)c1ccccc1 as the entry.
82.0 %, mol

----------
Below is a list of entries, each paired with its recorded Migration value.
- Procedure details: Partition equilibrium with addition of calcium and strontium salts to the aqueous phase
- Type: physicochemical
- Condition details: Strontium 400 mg · L^−1; salinity 3.5%
- Protocol: The addition of salts to the reaction system is of fundamental importance when one intends to mimic field conditions. […] To this end, the projects were based on the literature (Zheng, J. et al. Offshore produced water management: A review of current practice and challenges in harsh/Arctic environments. Mar. Pol. Bul. 2016, 104, 7-19) and four concentrations of each of the two ions were evaluated (400.0, 1200.0, 2600.0 and 9000.0 mg·L^−1), maintaining salinity at 3.5% (m·v^−1). […]

Known Migration results, listed for orientation:
• O=C(O)C(C1CCCCC1)C1CCCCC1 [Dicyclohexylacetic Acid, dicyclohexylacetic acid] = 15.8 %, mol
• O=C(O)CCCCC1CCCCC1 [Cyclohexanepentanoic Acid, cyclohexanepentanoic acid] = 4.4 %, mol
• O=C(O)CCCCc1ccccc1 [5-Phenylpentanoic Acid, 5-phenylpentanoic acid] = 4.4 %, mol
• O=C(O)c1ccccc1 [Benzoic Acid, benzoic acid] = 83.0 %, mol

Would you kindly look at the next entry?
Fill in Migration for record CCCCC(=O)O [Pentanoic Acid, pentanoic acid]
100.0 %, mol

----------
- Procedure details: Partition equilibrium in the presence of surfactants (TBA, CTA, TMA)
- Type: physicochemical
- Condition details: TBA1000 (1000 mg · L^−1)
# key: entry, value: Migration

# annotated cases, reported Migration shown
- O=C(O)CCCCc1ccccc1: 21.6 %, mol
- O=C(O)CCCCC1CCCCC1: 18.4 %, mol
- O=C(O)c1ccccc1: 54.8 %, mol

In one line, give reported Migration of the entry CCCCC(=O)O .
73.3 %, mol

Numbers sourced from patent US20250231157A1.
